meta.source: the supplement of paper PMC10567573

Catalogue of protein stability index values
B1: ZBTB22 (parent)
chain: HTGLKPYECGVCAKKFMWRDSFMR

- Variants of: B1
- Test: protein stability index of a GFP-peptide fusion (GPS, HEK-293T) (PSI 1-6); higher = more stable;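 further: lentivirally expressed fusions sorted by FACS into six bins by GFP to DsRed ratio, PSI derived from sequencing read proportions per bin multiplied by bin number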
- Stated Conditions: c terminus: a fixed tail appended
The answer should be written as a number, with no unit following it.

Data request: Could you share which protein stability index value was measured for `M23V` ?
Data returned: 1.96
